# protocol_description: Compound was evaluated for the inhibition of […] I-CCK-8 binding at CCK-B receptor Cholecystokinin type B receptor cerebral cortical membranes
quantity_measured: pIC50
Recall that pIC50 is obtained by taking minus log10 of the concentration measured in molar.

Form: compound = O=C(Nc1cccc(-c2nnn[nH]2)c1)NC1N=C(c2ccccc2F)c2cccc(Cl)c2N(CC(=O)N2CC3CCC(CC3)C2)C1=O (stereo unspecified) ; pIC50 = 9.18

Data origin: BindingDB's records for doi:10.1016/s0960-894x(98)00237-6
